Hi there, I'd appreciate the recorded % activity for every entry that follows.
target: Met(Y1248H)(h) (Homo sapiens, UniProt P08581, Y1230H)
Construct: purchased Millipore
procedure_text: Kinase Profiling Assay
Assay type: biochemical
experimental_conditions: peptide 100 μM
No end group written: not given here.
One number for each entry, in %.

sequence_text | target | % activity / %
YARAAARQARAKALARQLGVAA [MMI-0100] | Met(Y1248H)(h) (Homo sapiens, UniProt P08581, Y1230H) | 88
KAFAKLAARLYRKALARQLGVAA [MMI-0400] | Met(Y1248H)(h) (Homo sapiens, UniProt P08581, Y1230H) | 63
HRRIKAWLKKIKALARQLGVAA (Mammal) [MMI-0500] | Met(Y1248H)(h) (Homo sapiens, UniProt P08581, Y1230H) | 126

For the next question, use this sequence.
I would be grateful if you could share the reported % activity for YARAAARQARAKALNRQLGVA (Mammal) [MMI-0200] .
153

###

target: Flt1(h) (Homo sapiens)
Sequence (P17948 27-1338): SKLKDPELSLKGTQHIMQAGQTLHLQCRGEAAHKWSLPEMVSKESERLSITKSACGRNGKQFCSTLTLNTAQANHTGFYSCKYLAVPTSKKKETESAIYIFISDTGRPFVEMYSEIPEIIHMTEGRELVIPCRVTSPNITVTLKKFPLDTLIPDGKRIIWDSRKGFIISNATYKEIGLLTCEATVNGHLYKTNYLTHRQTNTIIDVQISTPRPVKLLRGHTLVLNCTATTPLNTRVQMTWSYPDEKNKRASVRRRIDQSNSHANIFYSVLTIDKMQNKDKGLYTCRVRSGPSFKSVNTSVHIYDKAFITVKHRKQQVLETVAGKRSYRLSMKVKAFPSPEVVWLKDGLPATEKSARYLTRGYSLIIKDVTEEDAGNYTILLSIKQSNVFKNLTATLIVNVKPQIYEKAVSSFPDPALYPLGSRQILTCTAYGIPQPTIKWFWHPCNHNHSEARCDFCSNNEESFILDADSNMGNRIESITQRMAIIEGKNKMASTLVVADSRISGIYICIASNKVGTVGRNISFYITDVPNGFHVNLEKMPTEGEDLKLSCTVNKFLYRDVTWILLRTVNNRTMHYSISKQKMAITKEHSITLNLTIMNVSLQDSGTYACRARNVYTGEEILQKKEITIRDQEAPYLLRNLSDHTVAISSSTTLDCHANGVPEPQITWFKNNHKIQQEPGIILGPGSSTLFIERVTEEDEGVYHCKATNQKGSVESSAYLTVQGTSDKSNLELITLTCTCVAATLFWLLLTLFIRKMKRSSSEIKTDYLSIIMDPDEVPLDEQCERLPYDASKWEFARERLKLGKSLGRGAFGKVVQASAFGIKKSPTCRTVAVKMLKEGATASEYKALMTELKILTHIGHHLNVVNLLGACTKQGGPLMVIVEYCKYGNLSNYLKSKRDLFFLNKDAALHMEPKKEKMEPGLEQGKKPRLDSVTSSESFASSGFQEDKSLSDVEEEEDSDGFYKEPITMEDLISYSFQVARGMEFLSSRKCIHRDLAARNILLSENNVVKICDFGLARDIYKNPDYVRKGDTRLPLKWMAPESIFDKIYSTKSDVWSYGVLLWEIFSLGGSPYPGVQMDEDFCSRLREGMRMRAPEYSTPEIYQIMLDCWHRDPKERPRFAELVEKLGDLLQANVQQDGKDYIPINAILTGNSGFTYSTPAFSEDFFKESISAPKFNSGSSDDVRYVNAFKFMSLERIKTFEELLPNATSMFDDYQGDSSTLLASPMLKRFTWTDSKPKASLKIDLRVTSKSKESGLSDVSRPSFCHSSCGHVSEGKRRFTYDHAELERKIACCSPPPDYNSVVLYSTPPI
procedure_text: Kinase Profiling Assay
Assay type: biochemical
experimental_conditions: peptide 100 μM
measurement_name: % activity (%)
Give bare numbers, in %.

Worked examples follow.
sequence_text | % activity / %
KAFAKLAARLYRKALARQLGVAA [MMI-0400] | 48
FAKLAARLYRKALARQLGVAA [MMI-0300] | 69
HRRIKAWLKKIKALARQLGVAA (Mammal) [MMI-0500] | 27

For the next question, use this sequence.
I would be grateful if you could share the reported % activity for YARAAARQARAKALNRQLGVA (Mammal) [MMI-0200] .
96

###

target: Bmx(h) (Homo sapiens)
Sequence (P51813 1-675): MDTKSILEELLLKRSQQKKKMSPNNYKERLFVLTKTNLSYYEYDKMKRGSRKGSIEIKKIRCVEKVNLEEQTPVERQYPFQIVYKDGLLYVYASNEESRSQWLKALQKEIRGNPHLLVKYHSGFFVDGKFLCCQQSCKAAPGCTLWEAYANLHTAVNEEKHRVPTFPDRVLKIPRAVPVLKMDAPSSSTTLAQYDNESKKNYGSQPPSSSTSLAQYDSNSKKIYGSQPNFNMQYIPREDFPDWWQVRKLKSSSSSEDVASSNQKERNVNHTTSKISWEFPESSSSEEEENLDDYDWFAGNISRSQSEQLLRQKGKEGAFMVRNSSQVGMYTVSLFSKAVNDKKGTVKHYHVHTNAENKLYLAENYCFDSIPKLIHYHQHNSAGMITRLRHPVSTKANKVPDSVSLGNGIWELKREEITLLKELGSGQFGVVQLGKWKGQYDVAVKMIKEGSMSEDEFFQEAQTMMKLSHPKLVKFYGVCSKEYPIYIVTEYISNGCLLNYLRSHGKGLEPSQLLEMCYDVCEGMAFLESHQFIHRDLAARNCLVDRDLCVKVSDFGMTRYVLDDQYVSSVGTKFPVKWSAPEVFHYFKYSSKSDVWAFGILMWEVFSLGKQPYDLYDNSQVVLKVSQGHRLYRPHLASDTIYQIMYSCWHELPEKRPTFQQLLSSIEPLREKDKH
procedure_text: Kinase Profiling Assay
Type: biochemical
experimental_conditions: peptide 100 μM
No end group written: not given here.
measurement_name: % activity (%)
One number for each entry, in %.

Worked examples follow.
sequence_text | measurement_name | display_unit | numeric_value
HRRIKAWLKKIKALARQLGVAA (Mammal) [MMI-0500] | % activity | % | 45
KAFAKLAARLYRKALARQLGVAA [MMI-0400] | % activity | % | 26
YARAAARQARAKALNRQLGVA (Mammal) [MMI-0200] | % activity | % | 76

I would be grateful if you could share the reported % activity for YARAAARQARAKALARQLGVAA [MMI-0100] .
62

###

target: PAK2(h) (Homo sapiens)
Construct: purchased Millipore
Sequence (Q13177 whole entry): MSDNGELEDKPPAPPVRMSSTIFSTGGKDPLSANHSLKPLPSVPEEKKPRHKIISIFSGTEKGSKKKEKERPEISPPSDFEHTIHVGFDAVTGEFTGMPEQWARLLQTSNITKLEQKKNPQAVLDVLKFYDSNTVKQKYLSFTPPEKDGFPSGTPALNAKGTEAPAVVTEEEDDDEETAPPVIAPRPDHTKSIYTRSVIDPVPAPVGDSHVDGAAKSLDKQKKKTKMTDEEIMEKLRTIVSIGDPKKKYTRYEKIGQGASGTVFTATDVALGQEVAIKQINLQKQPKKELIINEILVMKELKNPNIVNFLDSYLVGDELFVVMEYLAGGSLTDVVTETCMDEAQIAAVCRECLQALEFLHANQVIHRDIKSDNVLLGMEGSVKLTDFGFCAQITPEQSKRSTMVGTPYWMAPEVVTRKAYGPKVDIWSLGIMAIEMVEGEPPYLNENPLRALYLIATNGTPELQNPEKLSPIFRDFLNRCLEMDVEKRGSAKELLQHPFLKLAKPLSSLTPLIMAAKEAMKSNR
procedure_text: Kinase Profiling Assay
Type: biochemical
experimental_conditions: peptide 100 μM
No end group written: not given here.
Classify as follows. Reported % activity greater than or equal to 60%: Yes. Reported % activity below: No.

sequence_text | assigned_label
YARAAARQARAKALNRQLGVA (Mammal) [MMI-0200] | Yes
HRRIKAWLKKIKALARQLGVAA (Mammal) [MMI-0500] | No

API: above_or_equal(metric=% activity, cutoff=60%) for item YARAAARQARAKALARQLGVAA [MMI-0100]
Yes

API: above_or_equal(metric=% activity, cutoff=60%) for item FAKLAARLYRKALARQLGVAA [MMI-0300]
Yes

###

target: DAPK1(h) (Homo sapiens, UniProt P53355)
Sequence (P53355 whole entry): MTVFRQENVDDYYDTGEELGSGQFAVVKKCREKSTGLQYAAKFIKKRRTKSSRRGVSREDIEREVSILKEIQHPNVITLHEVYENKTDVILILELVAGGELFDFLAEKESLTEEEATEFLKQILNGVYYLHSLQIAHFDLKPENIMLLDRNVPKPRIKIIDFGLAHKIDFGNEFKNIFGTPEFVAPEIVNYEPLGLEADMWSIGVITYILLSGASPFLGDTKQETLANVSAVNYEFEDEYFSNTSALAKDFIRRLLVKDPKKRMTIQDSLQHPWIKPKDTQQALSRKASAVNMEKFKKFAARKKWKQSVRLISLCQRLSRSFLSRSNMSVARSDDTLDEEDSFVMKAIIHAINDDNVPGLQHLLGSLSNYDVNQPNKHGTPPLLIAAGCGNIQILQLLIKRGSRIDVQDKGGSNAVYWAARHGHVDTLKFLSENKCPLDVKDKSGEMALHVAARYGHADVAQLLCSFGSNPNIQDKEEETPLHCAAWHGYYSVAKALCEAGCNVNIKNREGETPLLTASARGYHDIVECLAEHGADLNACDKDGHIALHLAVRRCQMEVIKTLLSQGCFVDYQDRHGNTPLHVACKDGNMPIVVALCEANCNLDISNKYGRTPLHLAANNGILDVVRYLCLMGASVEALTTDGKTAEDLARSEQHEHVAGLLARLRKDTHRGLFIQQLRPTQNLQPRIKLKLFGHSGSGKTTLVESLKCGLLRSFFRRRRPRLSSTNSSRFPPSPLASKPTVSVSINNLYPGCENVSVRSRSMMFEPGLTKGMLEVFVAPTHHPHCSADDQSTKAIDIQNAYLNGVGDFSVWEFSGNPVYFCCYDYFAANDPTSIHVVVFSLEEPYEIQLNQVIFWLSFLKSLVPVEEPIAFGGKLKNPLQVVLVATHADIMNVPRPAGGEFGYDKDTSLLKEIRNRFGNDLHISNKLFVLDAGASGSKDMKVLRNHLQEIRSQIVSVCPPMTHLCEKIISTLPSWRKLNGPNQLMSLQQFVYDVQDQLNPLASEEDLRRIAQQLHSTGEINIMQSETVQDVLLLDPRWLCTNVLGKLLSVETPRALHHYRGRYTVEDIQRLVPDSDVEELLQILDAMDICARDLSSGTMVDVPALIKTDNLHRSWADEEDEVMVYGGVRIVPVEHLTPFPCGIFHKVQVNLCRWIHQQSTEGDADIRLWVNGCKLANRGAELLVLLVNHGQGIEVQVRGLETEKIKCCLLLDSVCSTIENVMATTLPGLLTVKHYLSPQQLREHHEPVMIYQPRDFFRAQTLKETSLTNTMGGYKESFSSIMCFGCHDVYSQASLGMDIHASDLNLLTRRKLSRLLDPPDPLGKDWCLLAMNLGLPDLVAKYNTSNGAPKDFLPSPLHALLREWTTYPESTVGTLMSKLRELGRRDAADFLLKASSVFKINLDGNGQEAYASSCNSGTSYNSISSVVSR
procedure_text: Kinase Profiling Assay
Format: biochemical
experimental_conditions: peptide 100 μM
No end group written: not given here.
Hi there, I'd appreciate the recorded % activity for every entry that follows.
Give bare numbers, in %.

Worked examples follow.
sequence_text | % activity / %
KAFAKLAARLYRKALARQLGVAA [MMI-0400] | 36
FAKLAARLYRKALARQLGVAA [MMI-0300] | 46

Batch request: % activity per item, same order as input.
1. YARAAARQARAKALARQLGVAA [MMI-0100]
2. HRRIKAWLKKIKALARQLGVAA (Mammal) [MMI-0500]

1: 97; 2: 0

###

target: Tie2(Y897S)(h) (Homo sapiens, UniProt Q02763, Y897S)
Sequence (Q02763 23-1124 Y897S): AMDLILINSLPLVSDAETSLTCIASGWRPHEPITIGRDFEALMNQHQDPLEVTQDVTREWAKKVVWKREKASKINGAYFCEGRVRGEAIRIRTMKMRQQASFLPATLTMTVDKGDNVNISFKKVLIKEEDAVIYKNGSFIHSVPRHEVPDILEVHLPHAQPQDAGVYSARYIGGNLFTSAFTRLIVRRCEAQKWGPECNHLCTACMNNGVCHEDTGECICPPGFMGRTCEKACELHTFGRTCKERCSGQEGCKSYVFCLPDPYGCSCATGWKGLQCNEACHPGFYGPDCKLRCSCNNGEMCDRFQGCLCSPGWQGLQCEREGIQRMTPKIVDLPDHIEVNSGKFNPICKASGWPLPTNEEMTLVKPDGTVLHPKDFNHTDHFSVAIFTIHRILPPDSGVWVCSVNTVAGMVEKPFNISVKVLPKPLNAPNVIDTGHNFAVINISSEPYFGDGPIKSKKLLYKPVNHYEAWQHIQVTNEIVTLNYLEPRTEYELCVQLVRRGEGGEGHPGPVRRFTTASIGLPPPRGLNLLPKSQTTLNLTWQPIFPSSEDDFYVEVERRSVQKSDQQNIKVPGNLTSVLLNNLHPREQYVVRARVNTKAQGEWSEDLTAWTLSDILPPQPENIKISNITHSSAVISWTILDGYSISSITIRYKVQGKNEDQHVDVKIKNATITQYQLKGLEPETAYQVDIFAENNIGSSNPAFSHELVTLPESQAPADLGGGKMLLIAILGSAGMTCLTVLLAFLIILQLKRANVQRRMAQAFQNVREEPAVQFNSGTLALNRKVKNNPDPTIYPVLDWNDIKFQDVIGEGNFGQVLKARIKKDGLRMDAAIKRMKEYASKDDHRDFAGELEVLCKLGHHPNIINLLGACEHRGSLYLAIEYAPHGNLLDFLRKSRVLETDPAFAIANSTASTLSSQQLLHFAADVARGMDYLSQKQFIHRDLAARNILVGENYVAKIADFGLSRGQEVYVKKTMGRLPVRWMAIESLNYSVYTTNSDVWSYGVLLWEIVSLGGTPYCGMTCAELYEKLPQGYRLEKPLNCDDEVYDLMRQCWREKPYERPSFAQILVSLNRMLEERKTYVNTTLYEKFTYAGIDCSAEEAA
procedure_text: Kinase Profiling Assay
Type: biochemical
experimental_conditions: peptide 100 μM
No end group written: not given here.
Hi there, I'd appreciate the recorded % activity for every entry that follows.

Worked examples follow.
sequence_text | % activity
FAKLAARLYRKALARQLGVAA [MMI-0300] | 83%
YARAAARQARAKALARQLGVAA [MMI-0100] | 99%
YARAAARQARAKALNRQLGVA (Mammal) [MMI-0200] | 85%

Batch request: % activity per item, same order as input.
1. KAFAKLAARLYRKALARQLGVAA [MMI-0400]
2. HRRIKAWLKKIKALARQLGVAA (Mammal) [MMI-0500]

1. 87%
2. 80%

###

target: Src(T341M)(h) (Homo sapiens, UniProt P12931, T341M)
Construct: purchased Millipore
procedure_text: Kinase Profiling Assay
Type: biochemical
experimental_conditions: peptide 100 μM
measurement_name: % activity
Please give the number followed by its unit.

sequence_text | % activity
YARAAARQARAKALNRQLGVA (Mammal) [MMI-0200] | 56%
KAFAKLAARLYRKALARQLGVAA [MMI-0400] | 76%
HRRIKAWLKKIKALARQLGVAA (Mammal) [MMI-0500] | 59%

For the next question, use this sequence.
I would be grateful if you could share the reported % activity for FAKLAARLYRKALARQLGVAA [MMI-0300] .
70%

###

Hi there, I'd appreciate the recorded % activity for every entry that follows.
target: MLCK(h) (Homo sapiens, UniProt Q9H1R3)
Construct: purchased Millipore
Sequence (Q9H1R3 2-596 limits assumed): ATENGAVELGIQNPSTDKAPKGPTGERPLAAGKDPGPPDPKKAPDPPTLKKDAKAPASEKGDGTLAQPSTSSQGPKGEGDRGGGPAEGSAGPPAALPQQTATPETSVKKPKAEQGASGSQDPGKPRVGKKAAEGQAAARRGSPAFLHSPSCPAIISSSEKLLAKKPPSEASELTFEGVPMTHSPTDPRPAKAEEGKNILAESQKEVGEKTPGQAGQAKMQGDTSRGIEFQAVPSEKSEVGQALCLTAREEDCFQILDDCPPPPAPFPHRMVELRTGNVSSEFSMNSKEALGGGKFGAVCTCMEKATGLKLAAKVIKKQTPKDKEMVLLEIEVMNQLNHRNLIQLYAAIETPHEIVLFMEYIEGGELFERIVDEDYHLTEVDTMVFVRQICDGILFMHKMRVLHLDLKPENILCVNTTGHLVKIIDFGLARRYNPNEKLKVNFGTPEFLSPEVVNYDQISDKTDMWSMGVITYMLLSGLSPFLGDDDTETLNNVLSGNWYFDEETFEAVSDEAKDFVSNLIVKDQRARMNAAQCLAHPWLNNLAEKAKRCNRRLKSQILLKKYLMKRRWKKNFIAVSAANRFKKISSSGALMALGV
procedure_text: Kinase Profiling Assay
Assay type: biochemical
experimental_conditions: peptide 100 μM
Method: Every kinase activity measurement was conducted in duplicate. Specifically, in these assays, a positively charged substrate is phosphorylated with a radiolabeled phosphate group from an ATP if the kinase is not inhibited by an inhibitor peptide. The positively charged substrate then is attracted to a negatively charged filter membrane, quantified with a scintillation counter, and compared to a 100% activity control. […]
No end group written: not given here.
Give bare numbers, in %.

Worked examples follow.
sequence_text | display_unit | % activity
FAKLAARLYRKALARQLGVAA [MMI-0300] | % | 2
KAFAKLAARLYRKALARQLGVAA [MMI-0400] | % | 1
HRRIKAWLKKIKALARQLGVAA (Mammal) [MMI-0500] | % | 0

For the next question, use this sequence.
I would be grateful if you could share the reported % activity for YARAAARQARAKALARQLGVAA [MMI-0100] .
85

###

target: Met(Y1248C)(h) (Homo sapiens, UniProt P08581, Y1230C)
Construct: purchased Millipore
procedure_text: Kinase Profiling Assay
Assay type: biochemical
experimental_conditions: peptide 100 μM
No end group written: not given here.
Hi there, I'd appreciate the recorded % activity for every entry that follows.
Give bare numbers, in %.

sequence_text | display_unit | numeric_value
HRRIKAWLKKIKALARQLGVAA (Mammal) [MMI-0500] | % | 73
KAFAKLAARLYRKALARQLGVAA [MMI-0400] | % | 36
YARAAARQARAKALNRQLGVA (Mammal) [MMI-0200] | % | 141
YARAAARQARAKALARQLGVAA [MMI-0100] | % | 77

For the next question, use this sequence.
Kindly state the measured % activity obtained for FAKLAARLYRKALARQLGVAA [MMI-0300] with Met(Y1248C)(h) (Homo sapiens, UniProt P08581, Y1230C).
84
